The measured values listed here are drawn from patent US10597388B2.

test system: wheat, spring (spring wheat, Triticum aestivum); assay: Test D controlled growth environment herbicide test, pre- and postemergence; format: in vivo; conditions: Postemergence, 250 g ai/ha; scale 0 to 100 (0 no effect, 100 complete control)
From the text: […]
PROPERTY_LABEL: Plant response rating, Wheat, Spring

Cc1nn(C)c(=O)c(-c2c(C)sc3c(C)cc(Cl)cc23)c1O ... 30
Cc1nn(C)c(=O)c(-c2cccc3ccccc23)c1O ... 25
Cc1nn(C)c(=O)c(-c2ccc(Br)c3ccccc23)c1O ... 15
Cc1nn(C)c(=O)c(-c2ccc(F)c3ccccc23)c1O ... 40
Cc1ccc2ccccc2c1-c1c(O)c(Br)nn(C)c1=O ... 60
Cc1nn(C)c(=O)c(-c2c(C)sc3ccc(Br)cc23)c1O ... 15
